TARGET: Human SARS-CoV-2_Wuhan S (SmT1) (SARS-CoV-2 (Wuhan), UniProt P0DTC2 14-1208)
ASSAY_PROCEDURE: sandwich ELISA: biotin NRCoV2-02 VHH capture, antigen titrated, VHH-Fc detector
Task for the reader: assign each of the following binders its reported SC50.
Just the number plus its unit, please.

Fill in reported SC50 for this entry: NRCoV2-1d VHH-Fc (Fc fusion, bivalent VHH-Fc) EVQLVESGGGSVQPGGSLRLSCAASGSTLDYYAIGWFRQAPGKEREWVSSVSSSDGNTLYADSVKGRFTISRDNAKNTVYLQMNSLKAEDTAVYVCAADYSMRPFAVGRWHRDYEYWGQGTQVTVSS
25 ng/mL

Give the reported value of SC50 for this record: NRCoV2-07 VHH-Fc (Fc fusion, bivalent VHH-Fc) QVQLVQSGGGLVQPGGSLRLSCAASGVTLDYYAIGWFRQAPGKEREAVSCISSNGRRNHYVASVRGRFTISRDNAKSTVYLQMNSLKPEDTAVYYCAAVQDVHGDNYYCTSPNEYNVWGQGTQVTVSS
18 ng/mL

Give recorded SC50. NRCoV2-04 VHH-Fc (Fc fusion, bivalent VHH-Fc) AVQLVDSGGGLVQPGGSLRLSCAASGSPFSNVVMAWYRQAPGKQRERVAFISGGGIADYIMSVKGRFTISRDNAKNTVYLQMNSLKPEDTAVYYCWSSYESTWGQGTQVTVSS
39 ng/mL

Specify reported SC50 for the binder shown: NRCoV2-11 VHH-Fc (Fc fusion, bivalent VHH-Fc) EVQLVSSGGGLVQPGGSLRLSCAASGSSLDSYSVSWFRQAPGKEREWISFISRYYSSTYYTDSVKGRFTTSRDGDQKTVHLQMNSLKPEDTAVYYCAARSRDFSSPFSATDTYTSWGQGTQVTVSS
20 ng/mL
